Reference source for all entries: patent US11801238B2

- System: SARS CoV-2
- experiment: SARS CoV-2 CPE assay for antiviral activity in Vero E6 host cells
- Assay type: cell-based
- test conditions: Vero C1008; CPE assay, Vero E6 cells, USA_WA1/2020 SARS CoV-2, 72 hours, 10-point dose response (high concentration 15 μM); read-out: IC50 for inhibition of SARS CoV-2 mediated cell killing
metric name: IC50

{"columns": ["compound structure", "result"],
 "data": [
  ["COC(=O)Nc1cc(-c2cc(-c3cccnc3C(F)(F)F)[nH]c(=O)c2)ccn1", "340 nM"],
  ["COC(=O)Nc1cc(-c2cc(-c3ccccc3C(F)(F)F)[nH]c(=O)c2)ccn1", "120 nM"],
  ["CC(=O)Nc1cc(-c2cc(-c3cccnc3C(F)(F)F)[nH]c(=O)c2)ccn1", "2340 nM"]
]}

---

- experiment: in vitro
- test conditions: human
Measured CC50 of individual entries
metric name: CC50 (µM)

{"columns": ["compound", "metric name", "unit symbol", "operator symbol", "result number"],
 "data": [
  ["COC(=O)Nc1cc(-c2cc(-c3cccnc3C(F)(F)F)[nH]c(=O)c2)ccn1 [Compound 3]", "CC50", "µM", ">", 30],
  ["COC(=O)Nc1cc(-c2cc(N3CCOCC3C(F)(F)F)[nH]c(=O)c2)ccn1 (stereo not shown) [Compound 4]", "CC50", "µM", "=", 2.4],
  ["COC(=O)Nc1cc(-c2cc(-c3ccccc3C(F)(F)F)[nH]c(=O)c2)ccn1 [Compound 1]", "CC50", "µM", "=", 17],
  ["CC(=O)Nc1cc(-c2cc(-c3cccnc3C(F)(F)F)[nH]c(=O)c2)ccn1 [Compound 2]", "CC50", "µM", ">", 30]
]}

---

- experiment: Compound cytotoxicity (CC50) counter screen, Cell Titer-Glo
- Assay type: cell-based
- test conditions: African green monkey, Example 5, Vero E6 cells, read-out: CC50 (general cytotoxic effects)
Measured CC50 at 72 h of individual entries

{"columns": ["molecule", "CC50 at 72 h"],
 "data": [
  ["COC(=O)Nc1cc(-c2cc(N3CCOCC3C(F)(F)F)[nH]c(=O)c2)ccn1 (stereo not shown)", "8.26 µM"],
  ["COC(=O)Nc1cc(-c2cc(-c3cccnc3C(F)(F)F)[nH]c(=O)c2)ccn1", "> 30 µM"],
  ["COC(=O)Nc1cc(-c2cc(-c3ccccc3C(F)(F)F)[nH]c(=O)c2)ccn1", "> 30 µM"],
  ["CC(=O)Nc1cc(-c2cc(-c3cccnc3C(F)(F)F)[nH]c(=O)c2)ccn1", "> 30 µM"]
]}
